- STUDY_TARGET: T1, recombinant human PD-L2 (human PD-L2 antigen) (human, UniProt Q9BQ51 20-219, limits assumed)
- T1 construct: The Biacore analyte and the ELISA antigen are only called human PD-L2 antigen / recombinant hPD-L2; Whole entry named; also called hPD-L2; recombinant hPD-L2
- T1 sequence (looked up): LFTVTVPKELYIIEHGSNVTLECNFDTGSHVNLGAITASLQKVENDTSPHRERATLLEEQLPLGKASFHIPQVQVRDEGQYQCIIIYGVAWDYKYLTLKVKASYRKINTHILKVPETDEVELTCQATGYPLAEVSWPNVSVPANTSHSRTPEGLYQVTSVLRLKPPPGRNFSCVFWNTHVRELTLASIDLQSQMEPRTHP
- PROCEDURE_TEXT: SPR (Biacore 8K), single cycle kinetics, antibody in culture supernatant, human PD-L2 antigen
- Description: Table 2: Single cycle kinetic parameters of chimeric (VH0/VK0) and humanized variants (tested as cell culture supernatants) binding to human PD-L2 antigen as determined using the Biacore 8K. […] The binding affinity of antibodies of the disclosed invention may be measured or determined by standard antibody-antigen assays. The relative KD was calculated by dividing the KD of the humanized variant by that of the VH0/VK0 assayed in the same experiment.
pKd: −log10 of the molar value.
// values below are reported pKd

BINDER	pKd
VH3/VK3 (antibody, V domains shown, hIgG1 backbone, CHO expressed) VH: QVQLVQSGAEVKKPGSSVKVSCKASGYAFSNYFIEWVKQPPGKGLEWIGLNIPGSGGSNYAEKFKGRVTITADKSTSTAYMELSSLRSEDSAVYFCARRRLPPDWYFDVWGQGTTVTVSS VL: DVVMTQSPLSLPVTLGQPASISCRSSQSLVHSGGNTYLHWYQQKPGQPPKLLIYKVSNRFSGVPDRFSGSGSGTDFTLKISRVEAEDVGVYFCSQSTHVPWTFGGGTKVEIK	9.50
VH0/VK1 (antibody, V domains shown, hIgG1 backbone, CHO expressed) VH: QVQLQQSGAELVRPGTSVKVSCKASGYAFSNYFIEWVKQRPGQGLEWIGLNIPGSGGSNYAEKFKGKATLTADKSSSTAYMQLSSLTSEDSAVYFCARRRLPPDWYFDVWGTGTTVTVSS VL: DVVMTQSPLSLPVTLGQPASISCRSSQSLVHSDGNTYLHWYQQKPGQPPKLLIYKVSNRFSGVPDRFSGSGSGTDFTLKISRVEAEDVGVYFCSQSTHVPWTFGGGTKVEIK	10.42
VH2/VK3 (antibody, V domains shown, hIgG1 backbone, CHO expressed) VH: QVQLVQSGAEVKKPGSSVKVSCKASGYAFSNYFIEWVKQPPGKGLEWIGLNIPGSGGSNYAEKFKGRATITADKSTSTAYMELSSLRSEDSAVYFCARRRLPPDWYFDVWGQGTTVTVSS VL: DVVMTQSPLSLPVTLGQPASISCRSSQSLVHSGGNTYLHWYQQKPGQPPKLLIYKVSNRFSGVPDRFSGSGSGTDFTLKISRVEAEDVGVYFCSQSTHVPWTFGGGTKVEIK	9.57

# credit: patent US20250179187A1
